Assay: Stability test of salt form screening (25° C., R.T./75% RH, light; HPLC, XRPD)
Format: physicochemical
Conditions: R.T./75% RH, open, 30 Days
Where a name gives a salt, the structure may show the parent alone.
Observation type: Total impurities (%)
I only need the number, in %, no unit after it.

Would you please look over these solved cases?
Compound	Obs value
Cc1c(S(C)(=O)=O)c(-c2cc(F)cc(N3CCN(c4ccc(NS(=O)(=O)c5ccc(N[C@H](CCN6CCC(C(=O)OCCCP(=O)(O)O)CC6)CSc6ccccc6)c(S(=O)(=O)C(F)(F)F)c5)cc4)CC3)c2)c(-c2ccc(Cl)cc2)n1C(C)C [Amorphous form XVI of meglumine salt]	4.95
Cc1c(S(C)(=O)=O)c(-c2cc(F)cc(N3CCN(c4ccc(NS(=O)(=O)c5ccc(N[C@H](CCN6CCC(C(=O)OCCCP(=O)(O)O)CC6)CSc6ccccc6)c(S(=O)(=O)C(F)(F)F)c5)cc4)CC3)c2)c(-c2ccc(Cl)cc2)n1C(C)C [Amorphous form XV of maleate salt]	7.00
Cc1c(S(C)(=O)=O)c(-c2cc(F)cc(N3CCN(c4ccc(NS(=O)(=O)c5ccc(N[C@H](CCN6CCC(C(=O)OCCCP(=O)(O)O)CC6)CSc6ccccc6)c(S(=O)(=O)C(F)(F)F)c5)cc4)CC3)c2)c(-c2ccc(Cl)cc2)n1C(C)C [Amorphous form XIII of sodium salt]	6.31

// switching to the query compound
Would you kindly share the measured Total impurities (%) for Cc1c(S(C)(=O)=O)c(-c2cc(F)cc(N3CCN(c4ccc(NS(=O)(=O)c5ccc(N[C@H](CCN6CCC(C(=O)OCCCP(=O)(O)O)CC6)CSc6ccccc6)c(S(=O)(=O)C(F)(F)F)c5)cc4)CC3)c2)c(-c2ccc(Cl)cc2)n1C(C)C [Amorphous form XII of potassium salt] ?
6.11

====

Assay: Stability test of salt form screening (25° C., R.T./75% RH, light; HPLC, XRPD)
Format: physicochemical
Conditions: R.T./75% RH, open, 10 Days
Where a name gives a salt, the structure may show the parent alone.
Observation type: Total impurities (%)
Dear colleague, please return just the value in %, with no unit written.

Molecule	Total impurities (%)
Cc1c(S(C)(=O)=O)c(-c2cc(F)cc(N3CCN(c4ccc(NS(=O)(=O)c5ccc(N[C@H](CCN6CCC(C(=O)OCCCP(=O)(O)O)CC6)CSc6ccccc6)c(S(=O)(=O)C(F)(F)F)c5)cc4)CC3)c2)c(-c2ccc(Cl)cc2)n1C(C)C [Amorphous form XV of maleate salt]	2.59
Cc1c(S(C)(=O)=O)c(-c2cc(F)cc(N3CCN(c4ccc(NS(=O)(=O)c5ccc(N[C@H](CCN6CCC(C(=O)OCCCP(=O)(O)O)CC6)CSc6ccccc6)c(S(=O)(=O)C(F)(F)F)c5)cc4)CC3)c2)c(-c2ccc(Cl)cc2)n1C(C)C [Amorphous form XII of potassium salt]	2.98
Cc1c(S(C)(=O)=O)c(-c2cc(F)cc(N3CCN(c4ccc(NS(=O)(=O)c5ccc(N[C@H](CCN6CCC(C(=O)OCCCP(=O)(O)O)CC6)CSc6ccccc6)c(S(=O)(=O)C(F)(F)F)c5)cc4)CC3)c2)c(-c2ccc(Cl)cc2)n1C(C)C [Amorphous form XIII of sodium salt]	3.08

Field: next molecule
Give its Total impurities (%) value. Item: Cc1c(S(C)(=O)=O)c(-c2cc(F)cc(N3CCN(c4ccc(NS(=O)(=O)c5ccc(N[C@H](CCN6CCC(C(=O)OCCCP(=O)(O)O)CC6)CSc6ccccc6)c(S(=O)(=O)C(F)(F)F)c5)cc4)CC3)c2)c(-c2ccc(Cl)cc2)n1C(C)C [Amorphous form XVI of meglumine salt]
1.86
